# measurement.protocol: Displacement of [3H]-kainate from kainate receptor in rat brain membranes after 1 hr by liquid scintillation counting method
# Assay type: cell membranes, Membrane
pIC50: −log10 of the molar value.
parameter.measured: pIC50

May I ask what pIC50 has been recorded for `CC(C)(C)c1onc(OCP(=O)(O)O)c1C[C@H](N)C(=O)O` ?
< 4.00

====

# measurement.protocol: Displacement of [3H]-AMPA from AMPA receptor in rat brain membranes after 1 hr by liquid scintillation counting method
# Assay type: cell membranes, Membrane
parameter.measured: IC50 (µM)
Numbers only, in µM.

Looking for the measured IC50 of `CC(C)(C)c1onc(OCP(=O)(O)O)c1C[C@H](N)C(=O)O` , can you help?
16

====

Give pKi for every item shown.
# measurement.protocol: Displacement of [3H]-kainate from kainate receptor in rat brain membranes after 60 mins
# Type: cell membranes, Membrane
pKi: −log10 of the molar value.

Here is how some compounds turned out for pKi.
NC(Cc1ccc(Cl)c(-c2cccc(C(=O)O)c2)c1)C(=O)O (racemic) ... < 4.00
NC(Cc1cc(Cl)cc(-c2cccc(C(=O)O)c2)c1)C(=O)O (racemic) ... < 4.00
Nc1c(-c2cccc(C(=O)O)c2)cc(CC(N)C(=O)O)cc1[N+](=O)[O-] (racemic) ... < 4.00

Answer for every listed entry: what is its pKi? The entries follow.
1. NC(Cc1cc(-c2cccc(C(=O)O)c2)c(Cl)c([N+](=O)[O-])c1)C(=O)O (racemic)
2. NC(Cc1cc(Cl)c(O)c(-c2cccc(C(=O)O)c2)c1)C(=O)O (racemic)
3. Nc1ccc(CC(N)C(=O)O)cc1-c1cccc(C(=O)O)c1 (racemic)
4. NC(Cc1ccc([N+](=O)[O-])c(-c2cccc(C(=O)O)c2)c1)C(=O)O (racemic)
5. NC(Cc1cc(-c2cccc(C(=O)O)c2)cc([N+](=O)[O-])c1)C(=O)O (racemic)
6. Nc1c(Cl)cc(CC(N)C(=O)O)cc1-c1cccc(C(=O)O)c1 (racemic)

[4.49, "< 4.00", "< 4.00", "< 4.00", "< 4.00", "< 4.00"]

====

Provide the recorded Ki for the entries that follow.
# measurement.protocol: Displacement of [3H]-AMPA from AMPA receptor in rat brain membranes after 30 mins
# Type: cell membranes, Membrane
One number for each entry, in µM.

NC(Cc1ccc([N+](=O)[O-])c(-c2cccc(C(=O)O)c2)c1)C(=O)O (racemic) ... 65
Nc1c(Cl)cc(CC(N)C(=O)O)cc1-c1cccc(C(=O)O)c1 (racemic) ... 100
NC(Cc1cc(-c2cccc(C(=O)O)c2)c(Cl)c([N+](=O)[O-])c1)C(=O)O (racemic) ... 62
NC(Cc1cc(-c2cccc(C(=O)O)c2)cc([N+](=O)[O-])c1)C(=O)O (racemic) ... 38

--- query ---
Item NC(Cc1cc(Cl)cc(-c2cccc(C(=O)O)c2)c1)C(=O)O (racemic) has what recorded Ki?
51

====

# experimental.target: UniProtKB P22756
# Sequence (P22756 whole entry): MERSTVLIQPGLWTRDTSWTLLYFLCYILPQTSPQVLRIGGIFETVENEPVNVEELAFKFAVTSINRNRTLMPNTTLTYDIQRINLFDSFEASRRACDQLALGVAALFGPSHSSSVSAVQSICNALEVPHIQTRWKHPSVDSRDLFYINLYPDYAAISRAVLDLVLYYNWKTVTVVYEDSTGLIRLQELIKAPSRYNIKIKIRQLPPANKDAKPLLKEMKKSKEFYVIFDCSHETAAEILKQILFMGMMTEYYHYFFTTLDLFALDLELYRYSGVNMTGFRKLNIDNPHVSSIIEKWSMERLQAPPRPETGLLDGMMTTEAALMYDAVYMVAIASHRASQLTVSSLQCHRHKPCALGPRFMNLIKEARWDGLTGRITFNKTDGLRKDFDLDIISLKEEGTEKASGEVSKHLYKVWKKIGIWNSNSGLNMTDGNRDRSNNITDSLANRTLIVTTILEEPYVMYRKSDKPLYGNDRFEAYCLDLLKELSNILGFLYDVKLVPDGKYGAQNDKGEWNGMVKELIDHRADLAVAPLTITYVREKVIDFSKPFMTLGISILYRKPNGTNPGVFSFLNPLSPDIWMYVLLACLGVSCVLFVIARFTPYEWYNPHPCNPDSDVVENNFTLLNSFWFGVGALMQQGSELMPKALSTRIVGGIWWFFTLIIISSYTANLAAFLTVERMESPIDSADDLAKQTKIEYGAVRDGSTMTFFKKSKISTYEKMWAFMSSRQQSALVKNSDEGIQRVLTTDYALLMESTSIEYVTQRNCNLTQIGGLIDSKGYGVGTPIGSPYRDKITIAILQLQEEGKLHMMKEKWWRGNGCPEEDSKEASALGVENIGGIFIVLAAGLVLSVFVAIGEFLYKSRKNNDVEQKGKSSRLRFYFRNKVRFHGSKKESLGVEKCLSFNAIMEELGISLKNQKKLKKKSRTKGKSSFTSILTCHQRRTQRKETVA
# measurement.protocol: Displacement of [3H]-NF608 from rat recombinant GluK1 receptor expressed in baculovirus infected insect Sf9 cell membranes after 60 mins
# condition.label: read-out: pKi (converted)
parameter.measured: Ki (µM)
Answers are plain numbers, in µM.

Past entries and their recorded results:
NC(Cc1cc(-c2cccc(C(=O)O)c2)c(Cl)c([N+](=O)[O-])c1)C(=O)O (racemic) ... 5.89
Nc1c(-c2cccc(C(=O)O)c2)cc(CC(N)C(=O)O)cc1[N+](=O)[O-] (racemic) ... 7.08
NC(Cc1cc(Cl)cc(-c2cccc(C(=O)O)c2)c1)C(=O)O (racemic) ... 5.5

For the next question, use this compound.
Quick one: Ki of Nc1c(Cl)cc(CC(N)C(=O)O)cc1-c1cccc(C(=O)O)c1 (racemic) ?
4.68

Cited source: ChEMBL document CHEMBL3864149
